The following substances are listed with their measured solubility in G1/S (log2) values.
Test system: HeLa Kyoto
Procedure text: solubility in G1/S (NP-40 vs SDS abundance) (log2 ratio); higher = more soluble
Experimental context: cell cycle stage: G1/S
# respond with the number and nothing more

The examples below pair each entry with its known result.
Substance: MAQRGGARRPRGDRERLGSRLRALRPGREPRQSEPPAQRGPPPSGRPPARSTASGHDRPTRGAAAGARRPRMKKKTRRRSTRSEELTRSEELTLSEEATWSEEATQSEEATQGEEMNRSQEVTRDEESTRSEEVTREEMAAAGLTVTVTHSNEKHDLHVTSQQGSSEPVVQDLAQVVEEVIGVPQSFQKLIFKGKSLKEMETPLSALGIQDGCRVMLIGKKNSPQEEVELKKLKHLEKSVEKIADQLEELNKELTGIQQGFLPKDLQAEALCKLDRRVKATIEQFMKILEEIDTLILPENFKDSRLKRKGLVKKVQAFLAECDTVEQNICQETERLQSTNFALAE [BAG1]
Target or test system: HeLa Kyoto
solubility in G1/S (log2): 0.0346
--
Substance: MQAALEVTARYCGRELEQYGQCVAAKPESWQRDCHYLKMSIAQCTSSHPIIRQIRQACAQPFEAFEECLRQNEAAVGNCAEHMRRFLQCAEQVQPPRSPATVEAQPLPAS [CHCHD5]
Target or test system: HeLa Kyoto
solubility in G1/S (log2): -0.11
--
Substance: MSGLRVYSTSVTGSREIKSQQSEVTRILDGKRIQYQLVDISQDNALRDEMRALAGNPKATPPQIVNGDQYCGDYELFVEAVEQNTLQEFLKLA [SH3BGRL3]
Target or test system: HeLa Kyoto;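 further: HeLa Kyoto cells arrested at G1/S by double thymidine block, proteins quantified by TMT10plex mass spectrometry in mild NP-40 versus SDS extracts, three biological replicates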
solubility in G1/S (log2): -0.259

Given the entry MEGLGRSCLWLRRELSPPRPRLLLLDCRSRELYESARIGGALSVALPALLLRRLRRGSLSVRALLPGPPLQPPPPAPVLLYDQGGGRRRRGEAEAEAEEWEAESVLGTLLQKLREEGYLAYYLQGGFSRFQAECPHLCETSLAGRAGSSMAPVPGPVPVVGLGSLCLGSDCSDAESEADRDSMSCGLDSEGATPPPVGLRASFPVQILPNLYLGSARDSANLESLAKLGIRYILNVTPNLPNFFEKNGDFHYKQIPISDHWSQNLSRFFPEAIEFIDEALSQNCGVLVHCLAGVSRSVTVTVAYLMQKLHLSLNDAYDLVKRKKSNISPNFNFMGQLLDFERSLRLEERHSQEQGSGGQASAASNPPSFFTTPTSDGAFELAPT [DUSP9] , what solubility in G1/S (log2) was observed with HeLa Kyoto?
0.279

Query the reported solubility in G1/S (log2) for HeLa Kyoto; item: MADLHRQLQEYLAQGKAGGPAAAEPLLAAEKAEEPGDRPAEEWLGRAGLRWTWARSPAESAAAGLTCLPSVTRGQRLAAGGGCLLLAALCFGLAALYAPVLLLRARKFALLWSLGSALALAGSALLRGGAACGRLLRCEEAPSRPALLYMAALGATLFAALGLRSTLLTVLGAGAQVAALLAALVGLLPWGGGTALRLALGRLGRGAGLAKVLPV [SFT2D3]
-0.165

Record lookup: for HeLa Kyoto, what solubility in G1/S (log2) belongs to ARHGAP35 ?
-0.0977

Form field: solubility in G1/S (log2) recorded for MGFLRRLIYRRRPMIYVESSEESSDEQPDEVESPTQSQDSTPAEEREDEGASAAQGQEPEADSQELVQPKTGCELGDGPDTKRVCLRNEEQMKLPAEGPEPEADSQEQVHPKTGCERGDGPDVQELGLPNPEEVKTPEEDEGQSQP [PAGE1] with HeLa Kyoto (enter value)
-0.617
